Assay: Cytotoxicity against HEL cells assessed as alteration in cell morphology after 3 days by microscopic method
Format: cell-based
Settings: human
The compounds listed here are annotated with their MCC at 72 h.

CCOC(=O)C1(Cc2ccccc2)CN(c2ccccc2)Cc2nnn(Cc3ccccc3)c21 (centres undefined) : ≥ 20 µM
CCOC(=O)C1(Cc2ccccc2)CN(c2ccccc2)Cc2nnn(CCc3ccccc3OC)c21 (centres undefined) : ≥ 100 µM
COc1ccccc1CCn1nnc2c1CCN(c1ccccc1)C2 : ≥ 100 µM

What value of MCC at 72 h has been reported for the following compound? CCOC(=O)C1(Cc2ccccc2)CN(c2ccccc2)Cc2nnn(Cc3cc(OC)c(OC)c(OC)c3)c21 (centres undefined) ≥ 100 µM

---

Experiment: Cytotoxicity against HEL cells assessed as alteration in cell morphology after 3 days by microscopic method
Assay type: cell-based
Conditions: human
MCC at 72 h: recorded values

COc1cccc(CCn2nnc3c2CCN(c2ccc(C(F)(F)F)cc2)C3)c1 : > 100 µM
Fc1ccc(Cn2nnc3c2CCN(c2ccc(C(F)(F)F)cc2)C3)cc1 : 100 µM
CCOC(=O)C1(Cc2ccc(F)cc2)CN(c2ccccc2)Cc2nnn(Cc3ccc(Cl)c(Cl)c3)c21 (stereo unspecified) : > 100 µM
CCOC(=O)C1(Cc2ccccc2)CN(c2ccccc2)Cc2nnn(CCc3ccc(OC)cc3)c21 (stereo unspecified) : ≥ 20 µM
CCOC(=O)C1(Cc2ccccc2)CN(c2ccccc2)Cc2nnn(Cc3ccccc3Cl)c21 (stereo unspecified) : > 100 µM
Fc1ccc(N2CCc3c(nnn3CC(c3ccccc3)c3ccccc3)C2)cc1 : ≥ 100 µM

# get_value(readout='MCC at 72 h', item= COc1ccccc1CCn1nnc2c1CCN(c1ccc(C(F)(F)F)cc1)C2 ) > 100 µM

Tell me the measured MCC at 72 h of Nc1ccn(C[C@@H](CO)OCP(=O)(O)O)c(=O)n1 [CIDOFOVIR] , please. > 250 µM

---

Assay: Cytotoxicity against HEL cells assessed as alteration in cell morphology after 3 days by microscopic method
Assay type: cell-based
Conditions: human
observable: MCC at 72 h

These solved cases illustrate the format of a correct answer.
CCOC(=O)C1(Cc2ccccc2)CN(c2ccccc2)Cc2nnn(Cc3cccc(F)c3)c21 (stereo not drawn) : ≥ 100 µM
c1ccc(N2CCc3c(nnn3CC3CC3)C2)cc1 : > 100 µM

Now examine the next entry.
What MCC at 72 h value was documented for this compound, COc1ccc(CCn2nnc3c2CCN(c2ccc(C(F)(F)F)cc2)C3)cc1 ? > 100 µM

Reference for the values: ChEMBL document CHEMBL4265975
